Reference for the values: patent US20130261178A1

Biological target: human beta2-adrenoceptor (Homo sapiens)
Construct: expressed in transfected cells; host or cells: CHO cells
Sequence (P07550 whole entry): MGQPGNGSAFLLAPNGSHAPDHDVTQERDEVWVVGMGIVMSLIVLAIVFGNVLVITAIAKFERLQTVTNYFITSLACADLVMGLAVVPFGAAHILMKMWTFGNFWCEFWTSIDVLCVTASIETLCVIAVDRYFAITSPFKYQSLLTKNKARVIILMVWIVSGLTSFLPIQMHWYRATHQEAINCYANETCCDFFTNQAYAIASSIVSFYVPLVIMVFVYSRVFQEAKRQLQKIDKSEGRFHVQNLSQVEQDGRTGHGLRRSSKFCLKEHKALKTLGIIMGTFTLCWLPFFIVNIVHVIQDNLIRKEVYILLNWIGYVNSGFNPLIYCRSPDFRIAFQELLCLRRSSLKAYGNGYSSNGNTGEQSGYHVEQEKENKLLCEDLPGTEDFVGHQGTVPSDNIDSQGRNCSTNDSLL
Test: 3H-CGP12177 whole-cell binding, CHO cells expressing human beta2-adrenoceptor
Conditions: 3H-CGP 12177 whole cell binding, mean ± s.e.mean
Quick rule for you: Beta 2 Log KD at -6 or higher means satisfied, lower means not satisfied.

- COMPOUND: "N#Cc1cc(OCCOCC2CC2)ccc1OCC(O)CNCCNC(=O)Nc1ccc(O)cc1 (stereo not drawn)"
  CATEGORY: "satisfied"
- COMPOUND: "O=C(NCCNCC(O)COc1ccc(OCCOC2CCCC2)cc1)Nc1cccc(F)c1 (stereo not drawn) [47i]"
  CATEGORY: "not satisfied"

---

The entries below come with measured Kd values attached.
Target: human beta2-adrenoceptor (Homo sapiens)
Construct: expressed in transfected cells; host or cells: CHO cells
Experiment: 3H-CGP12177 whole-cell binding, CHO cells expressing human beta2-adrenoceptor
Conditions: 3H-CGP 12177 whole cell binding, log KD, mean ± s.e.mean, read-out: Beta 2 Log KD (converted)

- COMPOUND: "OC(CNCCOc1ccc(F)cc1)COc1ccc(OCCOC2CCCC2)cc1 (stereo not drawn) [67d]"
  Kd / µM: 1.02
- COMPOUND: "O=C(Cc1ccc(O)cc1)NCCNCC(O)COc1ccc(OCCOCC2CC2)cc1 (stereo not drawn) [46i]"
  Kd / µM: 0.933
- COMPOUND: "COC(=O)c1cccc(NC(=O)NCCNCC(O)COc2ccc(OCCOC3CCCC3)cc2)c1 (stereo not drawn) [47y]"
  Kd / µM: 1.1
- COMPOUND: "O=C(NCCNCC(O)COc1ccc(OCCOC2CCCC2)cc1)Nc1ccc([N+](=O)[O-])cc1 (stereo not drawn) [47w]"
  Kd / µM: 1.78
- COMPOUND: "O=C(NCCNCC(O)COc1ccc(OCCOC2CCCC2)cc1)c1ccccc1O (stereo not drawn) [54d]"
  Kd / µM: 0.501
- COMPOUND: "CCOCCOc1ccc(OCC(O)CNCCNC(=O)Nc2cccc(Cl)c2)cc1 (stereo not drawn) [46f]"
  Kd / µM: 6.31
- COMPOUND: "OC(CNCCNC(=S)Nc1ccccc1)COc1ccc(OCCOC2CCCC2)cc1 (stereo not drawn)"
  Kd / µM: 0.692
- COMPOUND: "O=C(NCCNCC(O)COc1ccc(OCCOC2CCCC2)cc1)Nc1ccc(OCCF)cc1 (stereo not drawn) [47x]"
  Kd / µM: 1.82
- COMPOUND: "Oc1ccc(OCCCNCC(O)COc2ccc(OCCOC3CCCC3)cc2)cc1 (stereo not drawn) [65f]"
  Kd / µM: 0.794

---

The entries below come with measured melting point values attached.

- COMPOUND: "COc1ccccc1NC(=O)NCCNCC(O)COc1ccc(OCCOC2CCCC2)cc1 (stereo not drawn) [47e]"
  melting point: "78 to 83 °C"
- COMPOUND: "Cc1ccc(CC(=O)NCCNCC(O)COc2ccc(OCCOC3CCCC3)cc2)cc1 (stereo not drawn) [62r]"
  melting point: "82 to 85 °C"
- COMPOUND: "Nc1ccc(C(=O)NCCNCC(O)COc2ccc(OCCOC3CCCC3)cc2)cc1 (stereo not drawn) [62d]"
  melting point: "67 to 69 °C"
- COMPOUND: "O=C(NCCNCC(O)COc1ccc(OCCOC2CCCC2)cc1)Nc1ccc(Br)cc1 (stereo not drawn) [47p]"
  melting point: "148 to 150 °C"
- COMPOUND: "O=C(NCCNCC(O)COc1ccc(OCCOCCc2ccc(F)cc2)cc1)Nc1ccc(O)cc1 (stereo not drawn) [46b]"
  melting point: "113 to 115 °C"
- COMPOUND: "OC(CNCCOc1cccc(Cl)c1)COc1ccc(OCCOC2CCCC2)cc1 (stereo not drawn) (hydrate or solvate) [65a]"
  melting point: "73.5 °C"
